Entry source: PubChem BioAssay (NCI)

Test system: NCI/ADR-RES ovarian
Assay: NCI tumour cell line growth inhibition, 48 h

compound	TGI
CC(C)OC(=O)c1ccc(CCc2cc(O)c(Br)cc2O)cc1	25.5 µM
C=CS(=O)(=O)c1c2cc(OC)ccc2nc2ccc(OC)cc12	76.2 µM
Cc1ccc(NCCN2CCCCC2)c2c(=O)c3ccccc3sc12	6.78 µM
CC1CC(C)CN(S(=O)(=O)c2cc(Cl)c(Oc3ccc([N+](=O)[O-])cc3Cl)c(Cl)c2)C1 (configuration not stated)	> 100 µM
Oc1c(C(O)c2ccccn2)ccc2ccccc12 (configuration not stated)	> 100 µM
Cc1c(C(=O)O)nc(/C=C/C(=O)O)[nH]c1=O	> 100 µM
CCCCCc1cc2cc3c(c(O)c2c(=O)[nH]1)C1(CC3)C(O)=c2c(=O)c3c(=O)cc(OC)c(=O)c=3c(=O)c2=C1O (configuration not stated)	7.35 µM
N#CC(NCCc1ccccc1)c1ccccc1 (configuration not stated)	> 100 µM
O=C1/C(=C/c2cccc([N+](=O)[O-])c2)N=C(c2ccccc2)N1c1nc2c(Cl)cc(Cl)cc2s1	85.4 µM
C/C=C(\C)C(=O)O[C@H]1C=CC(=O)O[C@H]1CC[C@H](O)[C@H](C)O	34 µM
CNC(=S)N/N=C(\C)c1cc(OC)ccc1O	> 100 µM
COC(=O)C(CCC1C=CN(S(=O)(=O)c2ccc(C)cc2)C1)N=Cc1ccccc1 (configuration not stated)	> 100 µM
O=C(N=Nc1ccc(Br)cc1)NNc1ccc(Br)cc1	43.3 µM
CC(=O)NC(Cc1cnc[nH]1)C(=O)N1CCCC1C(N)=O (configuration not stated)	> 100 µM
S=C(NC/C(Br)=C/Br)Nc1cccc2ccccc12	50.9 µM
CCCCN(C(=O)c1ccccc1)C1CCC(=O)c2[nH]c3ccccc3c21 (configuration not stated)	> 100 µM
CCc1c2c(nc3ccc(OC(=O)NCc4ccc(B5OC(C)(C)C(C)(C)O5)cc4)cc13)-c1cc3c(c(=O)n1C2)COC(=O)[C@]3(O)CC	> 100 µM
COC(=O)[C@@]12CCCC(=O)[C@@H]1[C@H]1CCC[C@H]12	> 100 µM
CC(C)=CCC/C(C)=C\CC/C(C)=C/CO	42.6 µM
O=C(CSc1nccc(=O)[nH]1)c1ccccc1	> 100 µM
COP1(=O)OCc2cnccc2O1 (configuration not stated)	> 100 µM
COc1ccc2nccc(NCCCN3CCN(CCCNc4ccnc5ccc(OC)cc45)CC3)c2c1	> 100 µM

###

Reported values of TGI for individual entries
System: LXFL 529 NSCLC
Test: NCI tumour cell line growth inhibition, 48 h
measured-property: TGI

compound	data-value
CC(C)(C)c1ccc2c(c1)C(O)(c1ccccc1)c1cc(C(C)(C)C)ccc1C2(O)C(F)(F)F (stereo not drawn)	4.39 µM
COC(=O)c1nn(-c2ccccc2)c(=O)cc1N=[N+]=[N-]	> 100 µM
COS(=O)(=O)OCCC(NC(=O)OCc1ccccc1)C(=O)OCc1ccccc1 (stereo not drawn)	> 100 µM
O=C1OC(c2cccc(C(F)(F)F)c2)c2ccc3ccccc3c21 (stereo not drawn)	> 100 µM
CCCOP1(=O)C=CC(Cl)=C(C)C1 (stereo not drawn)	> 61.1 µM
O=C(CCc1n[nH]c(=S)o1)Nc1cc(Cl)c(Cl)cc1Cl	> 100 µM
C[C@]12Cc3cn[nH]c3C(=O)C1CC[C@@H]1C2CC[C@@]2(C)C1CC[C@]2(C)O (stereo partly drawn)	> 100 µM
CC(=O)CC(=O)Nc1c(C)[c]([Hg][O]C(C)=O)c(C)[c]([Hg][O]C(C)=O)[c]1[Hg][O]C(C)=O	20.7 µM
C/C(=N\NC(C)(C)C)c1sc(-c2nc(C)c(/C(C)=N/NC(C)(C)C)s2)nc1C	> 100 µM
CC(C)c1cccc(C(C)C)c1NC(=S)N=Nc1cc(C(C)(C)C)c(O)c(C(C)(C)C)c1	> 100 µM
[Co+2].[O-]c1ccccc1C=NCc1ccccc1.[O-]c1ccccc1C=NCc1ccccc1	> 100 µM
O=c1c(O)c(-c2ccccc2)n(O)c2ccc(Cl)cc12	64 µM
CC1=C(C(=O)Nc2cc(F)c(F)cc2F)C(c2ccc3c(c2)OCO3)C(C(=O)Nc2cc(F)c(F)cc2F)=C(C)N1	80.4 µM
C[C@]12C=CC(=O)C=C1[C@@H](F)C[C@H]1[C@@H]3CC[C@](O)(C(=O)CO)[C@@]3(C)C[C@H](O)[C@@]12F	> 100 µM
N/N=C(/Cc1ccccc1)NNC(N)=S	> 100 µM
O=c1c2c([nH]c3cc4c(cc13)OCO4)-c1ccccc1C2	63.7 µM
CC1(C)COC2(OC1)C1=NS(=O)(=O)CC13CCC2C3(C)C (stereo not drawn)	> 100 µM
CN(C)CCc1ccc(Cl)cc1Cl	> 100 µM

###

// reported TGI for each item listed
Tested on: HCC-2998 colon
Assay: NCI tumour cell line growth inhibition, 48 h
measured-property: TGI (µM)

compound	measured-property	data-value
Cc1nnc(N)nc1/C=C\c1ccc(N(C)C)cc1	TGI	23.8
COc1cc(-c2cc(/C=C/C(=O)c3ccc(N)cc3)[nH]n2)cc(OC)c1OC	TGI	3.63
Oc1ccccc1N=Cc1c(O)ccc2ccccc12	TGI	72.4
O=c1c(O)c(-c2ccccc2)n(O)c2ccc(Cl)cc12	TGI	40.1
CCOC(=O)c1ccc2[nH]c(O)c(C(=Nc3ccc(N(C)C(=O)CN4CCN(C)CC4)cc3)c3ccccc3)c2c1	TGI	2.06
COc1ccc2nc3cccc([N+](=O)[O-])c3c(NCCN(C)C)c2c1	TGI	0.188
NCCCCCCn1c2c(c3ccccc3c1=O)C(=O)c1ccccc1-2	TGI	14.3
CCCCCC(=O)N[C@H]1CCc2cc(OC)c(OC)c(OC)c2-c2ccc(SC)c(=O)cc21	TGI	0.0549
Oc1c(C(O)c2ccccn2)ccc2ccccc12 (stereo not given)	TGI	59.4
CCN(CC)CCOc1nc2c3ccc(Cl)cc3nn2c2ccccc12	TGI	3.43
O=C1CC[C@@]2(O)[C@H]3Cc4ccc(-c5cccc(O)c5)c5c4[C@@]2(CCN3CC2CC2)[C@H]1O5	TGI	34.1
CC(C)OC(=O)c1ccc(CCc2cc(O)c(Br)cc2O)cc1	TGI	29.6
CCCc1cc2c(cc1O)CC[C@@H]1[C@@H]2CC[C@]2(C)[C@@H](O)CC[C@@H]12	TGI	33
CN1CCN(c2ccc(N3Cc4ccccc4OC4=C3C(=O)c3c(O)ccc(O)c3C4=O)cn2)CC1	TGI	2.78
O=C1c2ccccc2C(=O)c2c1ccc(C(Br)Br)c2Cl	TGI	12.1
CCCCCCCc1c(Cl)nc(Cl)nc1Cl	TGI	17
COc1cc(C2c3cc4c(cc3CC3COC(=O)N32)OCO4)cc(OC)c1OC (stereo not given)	TGI	8.7
Cc1cc2cc3c(Cl)c(CCCl)c(C)nc3cc2c(Cl)c1CCCl	TGI	39.7
O=C(Nc1ccc(Cl)cc1)Nc1ccc(Oc2nncc3ccccc23)cc1	TGI	3.48

###

System: SK-MEL-2 melanoma
Assay: NCI tumour cell line growth inhibition, 48 h
Reported TGI is given for each of the following compounds.
measured-property: TGI

C=C(Nc1ccc(OC)cc1OC)C(=O)Cc1cccc[n+]1[O-] > 100 µM
Cc1ccc(-c2cc3c(NC(=O)C4CC4)ncnc3o2)cc1 > 25 µM
N#Cc1ccc(Oc2nc3ccccc3nc2C(=O)O)cc1 > 100 µM
Cc1nnc(N)nc1/C=C\c1ccc(N(C)C)cc1 > 100 µM
Cc1ccc(Nc2nc(C)c(C(=O)CC(=O)C(=O)Nc3ccc(Cl)cc3)s2)cc1 > 100 µM
CCOC(=O)c1sc2nc(SC)nc(N3CCCCC3)c2c1N > 100 µM

###

Tested on: CAKI-1 renal
Test: NCI tumour cell line growth inhibition, 48 h
measured-property: TGI (µM)

compound	target-desc	measured-property	data-value
C=C(CN(C)C)C(=O)c1ccc(OC2OC(COC(C)=O)C(OC(C)=O)C(OC(C)=O)C2OC(C)=O)cc1 (configuration not stated)	CAKI-1 renal	TGI	9.54
CCCCCCCc1c(Cl)nc(Cl)nc1Cl	CAKI-1 renal	TGI	5.36
CN(C)c1ccc(/C=c2/c3ccccc3n3c2cc(-c2ccc(Cl)cc2)[n+]3C)cc1	CAKI-1 renal	TGI	0.782
COc1cc2c(/C=C3/C(=O)Nc4ccc(O)cc43)c(Cl)[nH]c2cc1C	CAKI-1 renal	TGI	3.19
C=CS(=O)(=O)c1c2cc(OC)ccc2nc2ccc(OC)cc12	CAKI-1 renal	TGI	14.9
CN1C(=O)/C(=C/c2c(Cl)[nH]c3ccccc23)c2ccccc21	CAKI-1 renal	TGI	89.5
CC(C)OC(=O)c1ccc(CCc2cc(O)c(Br)cc2O)cc1	CAKI-1 renal	TGI	25
CS(=O)(=O)Nc1ccc(Nc2c3ccccc3nc3cc(N)ccc23)cc1	CAKI-1 renal	TGI	13
